Reference source: ChEMBL document CHEMBL3826881

- measured.target: Trypsin (Homo sapiens, UniProt P07477+P07478+P35030)
- method.notes: Inhibition of human trypsin using Boc-Gln-Ala-Arg-AMC as substrate after 20 mins by fluorimetric analysis
- Assay type: protein assay
Rule for this label: fulfilled means Ki is less than 500 nM; not fulfilled means Ki is at least 500 nM.

- smiles.repr: "N=C(N)c1ccc(OCc2ccc(COc3ccc(C(=N)N)cc3)cc2)cc1"
  discrete.label: "fulfilled"
- smiles.repr: "N=C(N)c1ccc(N2CCCN(c3ccc(C(=N)N)cc3)CC2)cc1"
  discrete.label: "not fulfilled"

Q: Input N=C(N)c1ccc(NCCCCCCCNc2ccc(C(=N)N)cc2)cc1 ; condition: Ki strictly below 500 nM. Does it hold?
A: fulfilled

Q: Input N=C(N)c1ccc(OCc2ccccc2COc2ccc(C(=N)N)cc2)cc1 ; condition: Ki strictly below 500 nM. Does it hold?
A: fulfilled

Q: Input N=C(N)c1ccc(NC(=O)C(=O)Nc2ccc(C(=N)N)cc2)cc1 ; condition: Ki strictly below 500 nM. Does it hold?
A: not fulfilled

Q: Input N=C(N)c1ccc(NCCCCCCCCNc2ccc(C(=N)N)cc2)cc1 ; condition: Ki strictly below 500 nM. Does it hold?
A: fulfilled

----------
- measured.target: UniProtKB Q9Y5Y6
- Sequence (Q9Y5Y6 whole entry): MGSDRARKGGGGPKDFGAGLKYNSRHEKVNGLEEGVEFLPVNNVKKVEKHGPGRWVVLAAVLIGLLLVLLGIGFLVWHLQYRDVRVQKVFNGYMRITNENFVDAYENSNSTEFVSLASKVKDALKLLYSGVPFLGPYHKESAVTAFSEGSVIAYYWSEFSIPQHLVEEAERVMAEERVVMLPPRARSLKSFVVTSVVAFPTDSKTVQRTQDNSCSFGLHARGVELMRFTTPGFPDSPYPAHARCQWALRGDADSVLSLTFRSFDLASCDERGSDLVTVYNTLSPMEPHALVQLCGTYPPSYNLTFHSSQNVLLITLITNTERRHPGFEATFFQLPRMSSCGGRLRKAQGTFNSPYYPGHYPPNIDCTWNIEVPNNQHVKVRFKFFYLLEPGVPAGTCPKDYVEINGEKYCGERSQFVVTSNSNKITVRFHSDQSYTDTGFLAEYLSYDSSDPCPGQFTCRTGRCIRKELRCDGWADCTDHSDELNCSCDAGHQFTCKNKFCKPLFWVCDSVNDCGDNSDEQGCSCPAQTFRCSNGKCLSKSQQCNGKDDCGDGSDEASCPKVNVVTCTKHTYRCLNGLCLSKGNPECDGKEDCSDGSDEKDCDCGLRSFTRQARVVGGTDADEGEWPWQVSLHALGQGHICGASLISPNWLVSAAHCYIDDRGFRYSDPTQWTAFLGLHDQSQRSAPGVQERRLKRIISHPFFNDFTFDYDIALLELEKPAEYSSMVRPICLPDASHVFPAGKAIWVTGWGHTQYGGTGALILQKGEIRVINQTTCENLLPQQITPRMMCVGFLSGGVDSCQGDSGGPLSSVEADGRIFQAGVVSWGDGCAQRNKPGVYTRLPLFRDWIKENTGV
Rule for this label: t means Ki is less than 600 nM; f means Ki is at least 600 nM.

- smiles.repr: "N=C(N)c1ccc(NCCCCCCCNc2ccc(C(=N)N)cc2)cc1"
  discrete.label: "t"

Q: Input N=C(N)c1ccc(N2CCCN(c3ccc(C(=N)N)cc3)CC2)cc1 ; condition: Ki strictly below 600 nM. Does it hold?
A: t

Q: Input N=C(N)c1ccc(OCc2ccc(COc3ccc(C(=N)N)cc3)cc2)cc1 ; condition: Ki strictly below 600 nM. Does it hold?
A: f

Q: Input N=C(N)c1ccc(NC(=O)C(=O)Nc2ccc(C(=N)N)cc2)cc1 ; condition: Ki strictly below 600 nM. Does it hold?
A: t

Q: Input N=C(N)c1ccc(N2CCN(c3ccc(C(=N)N)cc3)CC2)cc1 ; condition: Ki strictly below 600 nM. Does it hold?
A: f
